// provenance: patent US20210196796A1

experimental.system: T1, orthogonal hCD122 receptor (hoRb), hCD122 with H133D and Y134F (human, UniProt P14784 27-550)
T1 sequence: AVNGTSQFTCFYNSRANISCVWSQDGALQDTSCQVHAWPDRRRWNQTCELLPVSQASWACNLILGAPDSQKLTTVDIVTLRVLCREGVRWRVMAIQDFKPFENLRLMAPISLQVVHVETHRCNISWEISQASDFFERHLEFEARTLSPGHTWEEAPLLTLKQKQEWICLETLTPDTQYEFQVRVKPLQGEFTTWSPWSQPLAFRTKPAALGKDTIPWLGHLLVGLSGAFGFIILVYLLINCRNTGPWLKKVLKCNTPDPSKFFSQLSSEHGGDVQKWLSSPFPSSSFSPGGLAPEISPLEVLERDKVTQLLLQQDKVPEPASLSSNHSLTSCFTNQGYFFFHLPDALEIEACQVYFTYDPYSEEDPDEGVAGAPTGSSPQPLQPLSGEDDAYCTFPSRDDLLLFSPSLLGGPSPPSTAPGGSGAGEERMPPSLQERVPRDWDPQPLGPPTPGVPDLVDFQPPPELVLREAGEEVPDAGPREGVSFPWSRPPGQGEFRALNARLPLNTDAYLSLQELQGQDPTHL
test.details: cell-based or functional assay
parameter: 3F8 Ortho Proliferation Signal 1:2 (cts/min)
Give the quantity in cts/min, number only.

Using the record for SQILKA (ligand) APTSSSTKKTQLQLSQLLILLKAILNGINNYKNPKLTRMLTFKFYMPKKATELKHLQCLEEELKPLEEVLNLAQSKNFHLRPRDLISNINVIVLELKGSETTFMCEYADETATIVEFLNRWITFCQSIISTLT , report its 3F8 Ortho Proliferation Signal 1:2.
38500

Using the record for Q126C, SQVLKA (ligand) APTSSSTKKTQLQLSQLLVLLKAILNGINNYKNPKLTRMLTFKFYMPKKATELKHLQCLEEELKPLEEVLNLAQSKNFHLRPRDLISNINVIVLELKGSETTFMCEYADETATIVEFLNRWITFCCSIISTLT , report its 3F8 Ortho Proliferation Signal 1:2.
452

Using the record for L18V, SQVLKA (ligand) APTSSSTKKTQLQLSQLVVLLKAILNGINNYKNPKLTRMLTFKFYMPKKATELKHLQCLEEELKPLEEVLNLAQSKNFHLRPRDLISNINVIVLELKGSETTFMCEYADETATIVEFLNRWITFCQSIISTLT , report its 3F8 Ortho Proliferation Signal 1:2.
36500

Using the record for SQVLKT (ligand) APTSSSTKKTQLQLSQLLVLLKTILNGINNYKNPKLTRMLTFKFYMPKKATELKHLQCLEEELKPLEEVLNLAQSKNFHLRPRDLISNINVIVLELKGSETTFMCEYADETATIVEFLNRWITFCQSIISTLT , report its 3F8 Ortho Proliferation Signal 1:2.
46400

Using the record for SQVLWA (ligand) APTSSSTKKTQLQLSQLLVLLWAILNGINNYKNPKLTRMLTFKFYMPKKATELKHLQCLEEELKPLEEVLNLAQSKNFHLRPRDLISNINVIVLELKGSETTFMCEYADETATIVEFLNRWITFCQSIISTLT , report its 3F8 Ortho Proliferation Signal 1:2.
7840

Using the record for T3E, SQVLKA (ligand) APESSSTKKTQLQLSQLLVLLKAILNGINNYKNPKLTRMLTFKFYMPKKATELKHLQCLEEELKPLEEVLNLAQSKNFHLRPRDLISNINVIVLELKGSETTFMCEYADETATIVEFLNRWITFCQSIISTLT , report its 3F8 Ortho Proliferation Signal 1:2.
36100

Using the record for ΔP2, SQVLKA (ligand) ATSSSTKKTQLQLSQLLVLLKAILNGINNYKNPKLTRMLTFKFYMPKKATELKHLQCLEEELKPLEEVLNLAQSKNFHLRPRDLISNINVIVLELKGSETTFMCEYADETATIVEFLNRWITFCQSIISTLT , report its 3F8 Ortho Proliferation Signal 1:2.
40100
